B1: Zinc finger homeobox protein 3, residues 2147 to 2202; numbered along this chain, Q15911 (parent)
chain: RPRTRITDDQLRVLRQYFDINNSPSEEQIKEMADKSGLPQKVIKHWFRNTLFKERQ

Variants of: B1
Test details: abundance fitness (aPCA) (normalised: wild type 0, dead -1); higher = more abundant; growth selection in yeast, the domain comes from the species named
Cond: Homo sapiens
Readout type: abundance fitness
Answer with a number only.

Look over these answered cases.
Form field abundance fitness, entry `T4G` : -0.256

Data point: `K44I` ; abundance fitness = -0.102

Given item `F47L` , the value recorded as its abundance fitness is -0.211

Short answer for `I20M` : abundance fitness was 0.02

Sample `P2I` ; abundance fitness observed: 0.105

Value of abundance fitness reported for the variant `F47W` is -0.188

Lab book: abundance fitness of `S23Y` noted as -0.255

Entry under test: `L38M` . Its abundance fitness was -0.302

Per the records, this variant ( `V42K` ) has abundance fitness equal to -0.051

For record `D34E` the listed abundance fitness is 0.207

Further cases:
Recorded abundance fitness (variant `L51I` ): -0.232

variant `L14K` , abundance fitness observed: -1.03

Looking up `K35S` , I see its abundance fitness listed as -0.222

Entry under test: `G37C` . Its abundance fitness was -0.037

Sure, the documented abundance fitness for `D34L` is -0.123
